target under test: hGIPR (Homo sapiens, UniProt P48546)
Sequence (P48546 22-466): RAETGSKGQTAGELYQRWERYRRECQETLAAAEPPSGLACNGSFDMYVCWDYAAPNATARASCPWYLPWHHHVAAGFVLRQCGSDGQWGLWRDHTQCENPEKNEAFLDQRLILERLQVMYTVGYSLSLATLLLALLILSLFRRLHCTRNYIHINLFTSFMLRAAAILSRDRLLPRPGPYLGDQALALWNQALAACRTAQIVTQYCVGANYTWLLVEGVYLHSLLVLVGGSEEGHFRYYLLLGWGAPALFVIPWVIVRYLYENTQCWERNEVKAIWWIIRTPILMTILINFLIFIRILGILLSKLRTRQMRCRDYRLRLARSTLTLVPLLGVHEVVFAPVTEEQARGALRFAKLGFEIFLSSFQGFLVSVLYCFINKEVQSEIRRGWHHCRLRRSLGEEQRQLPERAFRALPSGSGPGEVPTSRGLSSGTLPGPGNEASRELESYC
test summary: Functional cAMP activity in the presence of 1% HSA
Format: cell-based
conditions used: read-out: cAMP Rel EC50, hGIPR
pEC50: −log10 of the molar value. Starred links: 1 amine or outer side, 2 acyl side, 3 side chain; linkers in the order of their positions; H or OH if unused. Non-standard residues stand in square brackets, D forms with d. Groups on a side chain read outwards from the residue. No end group written: not given here. *: point of attachment. C20 diacid = O=C(O)CCCCCCCCCCCCCCCCCCC(=O)*; C18 diacid = O=C(O)CCCCCCCCCCCCCCCCC(=O)*; αMePhe(2-F) = C[C@](N)(Cc1ccccc1F)C(=O)O; γGlu = O=C(O)[C@H](CCC(=O)[*:2])N[*:1]; αMe4Pal = C[C@](N)(Cc1ccncc1)C(=O)O; αMeY = C[C@](N)(Cc1ccc(O)cc1)C(=O)O; αMeF = C[C@](N)(Cc1ccccc1)C(=O)O; 4Pal = N[C@@H](Cc1ccncc1)C(=O)O; αMeL = CC(C)C[C@](C)(N)C(=O)O; αMeS = C[C@](N)(CO)C(=O)O; Orn = NCCC[C@H](N)C(=O)O; AEEA = NCCOCCOCC(=O)O; Aib = CC(C)(N)C(=O)O
test readout: pEC50

1) H-Y[Aib]QGT[αMeF]TSD[4Pal][αMeS]I[αMeL]LD[Orn]K([AEEA-γGlu-C18 diacid])AQ[αMe4Pal]EFI[dE][αMeY]LIEGGPSSGAPPPSGSE-NH2 [Example 1166] ... 8.96
2) H-Y[Aib]QGTFTSDFS[Orn][αMeL]LDKK([AEEA-γGlu-C18 diacid])AQ[Aib]AFIEYLIE[Aib]GESSGAPPPSGE-NH2 [Example 219] ... 7.63
3) Y[Aib]QGT[αMePhe(2-F)]TSD[4Pal][αMeS]I[αMeL]LD[Orn]K([γGlu-γGlu-C18 diacid])AQ[Aib][Orn]FI[dE][αMeY]LQEGGPSSGEPPPEGGEE-NH2 [Example 586] ... 8.61
4) H-Y[Aib]QGTFTSD[4Pal]SK[αMeL]LDKK([AEEA-γGlu-C18 diacid])AQ[Aib]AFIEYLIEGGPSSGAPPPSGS-NH2 [Example 908] ... 7.57
5) Y[Aib]QGT[αMePhe(2-F)]TSD[4Pal]SI[αMeL]LD[Orn]K([AEEA-AEEA-γGlu-C18 diacid])AQ[αMe4Pal]EFI[dE][αMeY]LLEGGPSSGAPPPSGE-NH2 [Example 613] ... 9.10
6) Y[Aib]QGTFTSD[4Pal]SR[αMeL]LDKK([γGlu-γGlu-C18 diacid])AQ[αMe4Pal]AFIE[αMe4Pal]LIEGGPSSGAPPPSGSEE-NH2 [Example 959] ... 7.61
7) H-Y[Aib]QGTFTSDFS[Orn][αMeL]LDKK([AEEA-AEEA-γGlu-C18 diacid])AQ[Aib]AFIEYLLE[dA]GPSSGHPPPSGS-NH2 [Example 253] ... 7.58
8) H-Y[Aib]QGT[αMePhe(2-F)]TSDFSILLDKQAQK([AEEA-AEEA-γGlu-C20 diacid])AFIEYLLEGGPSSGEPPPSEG-NH2 [Example 346] ... 7.55
9) H-Y[Aib]QGT[αMeF]TSD[4Pal][αMeS]I[αMeL]LD[Orn]K([γGlu-γGlu-C18 diacid])AQ[αMe4Pal]EFI[dE][αMeY]LIEGGPSSGAPPPSGSE-NH2 [Example 1172] ... 9.15
10) H-Y[Aib]QGT[αMePhe(2-F)]TSD[4Pal][αMeS]I[αMeL]LD[Orn]K([γGlu-γGlu-C18 diacid])AQ[Aib][Orn]FI[dE][αMeY]LAEGGPSSGEPPPSGSEE-NH2 [Example 589] ... 8.42
11) H-Y[Aib]QGTFTSDFS[Orn][αMeL]LDKK([AEEA-γGlu-C18 diacid])AQ[Aib]AFIEWLLEGGHSSGAPPPEGS-NH2 [Example 126] ... 7.39

The reported measurements were obtained from patent US20240270821A1.
